assay_method_text: Parallel artificial membrane permeability assay for the blood–brain barrier (PAMPA-BBB), coupled with UHPLC-DAD
Assay type: in vitro ADME
measurement_setup: constituent measured within T. balsamita 50% (v/v) ethanolic extract (TbE), donor pH 7.4, acceptor pH 7.4, 37 °C, Pe in cm/s, n = 9, read-out: logPe PAMPA-BBB (n = 9) (converted)
endpoint: Papp at 4 h

Task item: Query Papp at 4 h for O=c1cc(-c2ccc(O)cc2)oc2cc(O)cc(O)c12
Reply: 34.7 ×10⁻⁶ cm/s
